Known Measured in vitro phosphorylation by PKC-delta of a selection of substances
Experimental target: PKC-delta (Homo sapiens, UniProt Q05655)
Construct: purchased Calbiochem
Sequence (Q05655 whole entry): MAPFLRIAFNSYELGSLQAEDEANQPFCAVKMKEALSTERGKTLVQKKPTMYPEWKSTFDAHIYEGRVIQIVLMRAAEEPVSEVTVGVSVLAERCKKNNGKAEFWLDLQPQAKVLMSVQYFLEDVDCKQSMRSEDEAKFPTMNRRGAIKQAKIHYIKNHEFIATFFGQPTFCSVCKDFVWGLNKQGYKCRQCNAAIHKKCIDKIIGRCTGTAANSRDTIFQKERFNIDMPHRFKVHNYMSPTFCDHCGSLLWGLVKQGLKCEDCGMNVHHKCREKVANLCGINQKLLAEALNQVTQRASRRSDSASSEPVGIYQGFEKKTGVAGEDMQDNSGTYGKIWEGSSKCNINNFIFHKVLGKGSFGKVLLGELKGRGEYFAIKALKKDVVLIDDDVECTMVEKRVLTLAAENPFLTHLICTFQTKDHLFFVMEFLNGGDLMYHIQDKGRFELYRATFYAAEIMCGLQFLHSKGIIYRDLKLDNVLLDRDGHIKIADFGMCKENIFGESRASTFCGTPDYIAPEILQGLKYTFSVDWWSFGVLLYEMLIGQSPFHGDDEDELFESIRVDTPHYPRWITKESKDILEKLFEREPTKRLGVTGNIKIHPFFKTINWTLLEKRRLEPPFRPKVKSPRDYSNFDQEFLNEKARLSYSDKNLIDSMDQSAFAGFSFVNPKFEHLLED
Assay details: In vitro kinase assay: peptide phosphorylation by PKC-delta
Type: biochemical
Cond: peptide concentration of 10 nM; percentage of phosphorylation of the best validating peptide substrate
Experimental: One approach to validating a substrate identification method can involve, for example, comparison of substrate sites predicted by the method with in vitro phosphorylation results obtained using the selected kinase and peptides of known sequences. […] Table 2 compares the present predictions with actual measurements of phosphorylation on validating peptides. […] In vitro phosphorylation of these validating peptides was measured in the manner described herein. […]
Recorded metric: Measured in vitro phosphorylation by PKC-delta (%)

substance="42 (QPEGLRSLKKPDRKKR) [compound 42]" unit_label=% value_measured=3
substance="15 (RGFLRSASLGRRASFHLE) [compound 15]" unit_label=% value_measured=18
substance="64 (ALRAPKPTLRYFTTERF) [compound 64]" unit_label=% value_measured=1
substance="63 (QRQERIFSKRRGQDF) [compound 63]" unit_label=% value_measured=1
substance="19 (AGSFKRNSIKKIV) [compound 19]" unit_label=% value_measured=14
substance="28 (KRPGKKGSNKRPGKR) [compound 28]" unit_label=% value_measured=8
substance="39 (LLGSGKVTDRKAL) [compound 39]" unit_label=% value_measured=3
substance="72 (LTDPKEDPIYDEPEGLAPVPG) [compound 72]" unit_label=% value_measured=0
substance="74 (IDYYKKTSNGRLPVK) [compound 74]" unit_label=% value_measured=0
substance="66 (GFAKKIGSGQKTWTF) [compound 66]" unit_label=% value_measured=1

src = patent US20050064507A1
